Molecular target: human mAChR M4 (Homo sapiens, UniProt P08173)
Construct: expressed in transfected cells; host or cells: CHO-K1 (American Type Culture Collection), stably expressing hM4 and Gqi5
Sequence (P08173 1-479): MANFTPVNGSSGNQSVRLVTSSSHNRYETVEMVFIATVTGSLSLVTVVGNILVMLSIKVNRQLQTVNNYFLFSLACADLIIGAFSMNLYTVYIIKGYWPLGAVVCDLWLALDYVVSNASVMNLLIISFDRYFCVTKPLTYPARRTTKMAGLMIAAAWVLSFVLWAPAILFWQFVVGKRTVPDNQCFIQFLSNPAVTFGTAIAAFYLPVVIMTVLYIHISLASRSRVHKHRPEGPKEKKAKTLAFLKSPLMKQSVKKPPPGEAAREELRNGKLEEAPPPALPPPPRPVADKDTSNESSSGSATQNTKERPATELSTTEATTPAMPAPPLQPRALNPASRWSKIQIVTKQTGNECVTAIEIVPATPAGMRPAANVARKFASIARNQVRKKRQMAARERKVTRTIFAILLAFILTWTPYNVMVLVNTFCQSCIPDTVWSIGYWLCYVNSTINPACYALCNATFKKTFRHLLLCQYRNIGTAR
Test: mAChR M4 cell-based functional assay: calcium mobilization (Fluo-4, FDSS), potentiation of EC20 acetylcholine response in hM4-Gqi5 CHO-K1 cells
Details: CHO-K1, % ACh maximum at 30 μM; human M4
measured endpoint: Emax at 30 µM (%)

Cc1cc(N(C)C)ncc1-c1cnc2c(c1)CN(c1nn3c(=O)ccnc3cc1C)CC2 :: 92

1: Cc1cc2nccc(=O)n2nc1N1CCc2ncc(Nc3ccnnc3)cc2C1
2: Cc1cncc(-c2cnc3c(c2)CN(c2nn4c(=O)cc(C)nc4cc2C)CC3)c1
Which entry shows the lesser value of Emax at 30 µM here, 1 or 2 ? // respond with label for picked entry
2

----------
Molecular target: human mAChR M4 (Homo sapiens, UniProt P08173)
Construct: expressed in transfected cells; host or cells: CHO-K1 (American Type Culture Collection), stably expressing hM4 and Gqi5
Assay: mAChR M4 cell-based functional assay: calcium mobilization (Fluo-4, FDSS), potentiation of EC20 acetylcholine response in hM4-Gqi5 CHO-K1 cells
Settings: CHO-K1, % ACh maximum at 30 μM; human M4
Protocol: […] Calcium flux was measured using the Functional Drug Screening System (FDSS) 6000 or 7000 (Hamamatsu Corporation, Tokyo, Japan) as an increase in the fluorescent static ratio. […] Agonist activity was analyzed as a concentration-dependent increase in calcium mobilization upon compound addition. Positive allosteric modulator activity was analyzed as a concentration-dependent increase in the EC20 acetylcholine response. […]
measured endpoint: Emax at 30 µM (%)

Cc1cc(=O)n2nc(N3CCc4ncc(N5CCSCC5)cc4C3)c(C)c(C)c2n1 [Compound 2-46] :: 99
COc1ccc(-c2cnc3c(c2)CN(c2nn4c(=O)cc(C(F)(F)F)nc4cc2C)CC3)cn1 [Compound 1-75] :: 46

A: Cc1cc2nccc(=O)n2nc1N1CCc2ncc(N3CC(C)Oc4cc(F)ccc43)cc2C1 (stereo not drawn) [Compound 2-55]
B: Cc1c(N2CCc3ncc(-c4cnccc4C(F)(F)F)cc3C2)nn2c(=O)ccnc2c1C [Compound 1-142]
API: POST /compare with A and B ; response names the item with higher Emax at 30 µM. // respond with label for picked entry
A

----------
Target: human mAChR M4 (Homo sapiens, UniProt P08173)
Construct: expressed in transfected cells; host or cells: CHO-K1 (American Type Culture Collection), stably expressing hM4 and Gqi5
Assay: mAChR M4 cell-based functional assay: calcium mobilization (Fluo-4, FDSS), potentiation of EC20 acetylcholine response in hM4-Gqi5 CHO-K1 cells
Settings: CHO-K1, % ACh maximum at 30 μM; human M4
Protocol: […] Calcium flux was measured using the Functional Drug Screening System (FDSS) 6000 or 7000 (Hamamatsu Corporation, Tokyo, Japan) as an increase in the fluorescent static ratio. […] Agonist activity was analyzed as a concentration-dependent increase in calcium mobilization upon compound addition. Positive allosteric modulator activity was analyzed as a concentration-dependent increase in the EC20 acetylcholine response. […]
measured endpoint: Emax at 30 µM (%)

Cc1cc(=O)n2nc(N3CCc4ncc(-c5cncc(Cl)c5)cc4C3)c(C)c(C)c2n1 :: 89
Cc1cc(=O)n2nc(N3CCc4ncc(-c5cnc(F)cc5C)cc4C3)c(C)c(C)c2n1 :: 91
Cc1ccccc1-c1cnc2c(c1)CN(c1nn3c(=O)ccnc3cc1C)CC2 :: 96
Cc1cc2nc(C(=O)NC3CN(CC(F)(F)F)C3)cc(=O)n2nc1N1CCc2ncc(C(F)(F)F)cc2C1 :: 94
COc1ncc(-c2cnc3c(c2)CN(c2nn4c(=O)cc(C(F)F)nc4c(C)c2C)CC3)cc1Cl :: 72
CC(=O)N1CC=C(c2cnc3c(c2)CN(c2nn4c(=O)ccnc4cc2C)CC3)CC1 :: 61
Cc1cc(=O)n2nc(N3CCc4ncc(-c5cnc(Cl)cc5C)cc4C3)c(C)cc2n1 :: 91
Cc1cc2nccc(=O)n2nc1N1CCc2ncc(-c3ccsc3C#N)cc2C1 :: 82

A: COCc1cc(=O)n2nc(N3CCc4ncc(-c5ccc(OC(F)F)nc5)cc4C3)c(C)c(C)c2n1
B: Cc1cc2nccc(=O)n2nc1N1CCc2ncc(Nc3ccncc3)cc2C1
Which entry shows the lesser value of Emax at 30 µM here, A or B ? // respond with label for picked entry
A
(A: 64%, B: 96%)

----------
Biological target: human mAChR M4 (Homo sapiens)
Sequence (P08173 1-479): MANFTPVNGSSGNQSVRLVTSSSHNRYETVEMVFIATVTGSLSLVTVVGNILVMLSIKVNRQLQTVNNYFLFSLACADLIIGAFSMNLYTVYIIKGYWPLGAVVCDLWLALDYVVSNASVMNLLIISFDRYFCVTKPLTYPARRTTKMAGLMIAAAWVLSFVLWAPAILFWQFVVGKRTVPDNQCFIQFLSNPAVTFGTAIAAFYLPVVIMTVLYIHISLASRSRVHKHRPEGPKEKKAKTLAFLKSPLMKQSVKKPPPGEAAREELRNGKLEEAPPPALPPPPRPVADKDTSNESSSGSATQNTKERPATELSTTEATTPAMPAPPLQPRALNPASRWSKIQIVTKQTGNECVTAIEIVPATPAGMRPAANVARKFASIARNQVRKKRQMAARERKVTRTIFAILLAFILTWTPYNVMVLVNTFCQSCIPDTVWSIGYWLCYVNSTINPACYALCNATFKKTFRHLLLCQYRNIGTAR
Experiment: mAChR M4 cell-based functional assay: calcium mobilization (Fluo-4, FDSS), potentiation of EC20 acetylcholine response in hM4-Gqi5 CHO-K1 cells
Conditions: potentiation of EC20 acetylcholine response, calcium mobilization, human M4
pEC50: −log10 of the molar value.
measured endpoint: pEC50

a: Cc1cc2nccc(=O)n2nc1N1CCc2ncc(-c3cnc(F)c(F)c3)cc2C1
b: Cc1cc(=O)n2nc(N3CCc4ncc(-c5cnn(C)c5C)cc4C3)c(C)cc2n1
c: Cc1cc2nccc(=O)n2nc1N1CCc2ncc(Nc3cccc(F)n3)cc2C1
d: Cc1c(N2CCc3ncc(C(F)(F)F)cc3C2)nn2c(=O)ccnc2c1C
e: Cc1cc2nccc(=O)n2nc1N1CCc2ncc(N3CCc4ccccc43)cc2C1
Ordering: ascending pEC50. The response must list the labels following the requested ordering.
a, c, b, d, e

----------
Target: human mAChR M4 (Homo sapiens, UniProt P08173)
Construct: expressed in transfected cells; host or cells: CHO-K1 (American Type Culture Collection), stably expressing hM4 and Gqi5
Sequence (P08173 1-479): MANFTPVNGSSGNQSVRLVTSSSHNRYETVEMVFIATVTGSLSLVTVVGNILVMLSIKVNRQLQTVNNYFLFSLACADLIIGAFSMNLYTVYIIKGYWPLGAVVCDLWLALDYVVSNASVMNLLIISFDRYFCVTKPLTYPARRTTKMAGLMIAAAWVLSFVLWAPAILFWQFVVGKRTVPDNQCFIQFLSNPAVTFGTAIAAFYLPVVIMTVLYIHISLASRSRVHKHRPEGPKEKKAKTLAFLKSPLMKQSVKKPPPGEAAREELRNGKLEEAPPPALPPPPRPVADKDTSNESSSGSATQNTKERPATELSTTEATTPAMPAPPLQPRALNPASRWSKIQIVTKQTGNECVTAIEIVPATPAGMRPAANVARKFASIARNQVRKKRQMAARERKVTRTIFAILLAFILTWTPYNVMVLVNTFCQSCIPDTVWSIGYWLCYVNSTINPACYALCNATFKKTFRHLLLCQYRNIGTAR
Assay: mAChR M4 cell-based functional assay: calcium mobilization (Fluo-4, FDSS), potentiation of EC20 acetylcholine response in hM4-Gqi5 CHO-K1 cells
Settings: CHO-K1, % ACh maximum at 30 μM; human M4
Protocol: […] Calcium flux was measured using the Functional Drug Screening System (FDSS) 6000 or 7000 (Hamamatsu Corporation, Tokyo, Japan) as an increase in the fluorescent static ratio. […] Agonist activity was analyzed as a concentration-dependent increase in calcium mobilization upon compound addition. Positive allosteric modulator activity was analyzed as a concentration-dependent increase in the EC20 acetylcholine response. […]
measured endpoint: Emax at 30 µM (%)

Field: example entries. Status: answers known.
Cc1cc(=O)n2nc(N3CCc4ncc(-c5cc(F)nc(F)c5)cc4C3)c(C)cc2n1 [Compound 1-242] :: 79
Cc1cc(=O)n2nc(N3CCc4ncc(-c5cnc(C)s5)cc4C3)c(C)cc2n1 [Compound 1-31] :: 83
Cc1cc(F)c(F)cc1-c1cnc2c(c1)CN(c1nn3c(=O)ccnc3c(C)c1C)CC2 [Compound 1-446] :: 85
COCc1cc(=O)n2nc(N3CCc4ncc(-c5cccs5)cc4C3)c(C)cc2n1 [Compound 1-367] :: 71
Cc1cc(=O)n2nc(N3CCc4ncc(-c5ccccc5F)cc4C3)c(C)c(C)c2n1 [Compound 1-251] :: 84
Cc1cc2nccc(=O)n2nc1N1CCc2ncc(N3CCOC(C)(C)C3)cc2C1 [Compound 2-68] :: 96
Cc1cc2nccc(=O)n2nc1N1CCc2ncc(N3CCOC(c4ccccc4F)C3)cc2C1 (stereo not shown) [Compound 2-59] :: 74
Cc1ccc(-c2cnc3c(c2)CN(c2nn4c(=O)c(C)cnc4cc2C)CC3)cn1 [Compound 1-86] :: 94
COc1ccc(C2CN(c3cnc4c(c3)CN(c3nn5c(=O)ccnc5cc3C)CC4)CCO2)cc1 (stereo not shown) [Compound 2-95] :: 64
COc1ccc(Nc2cnc3c(c2)CN(c2nn4c(=O)ccnc4cc2C)CC3)cn1 [Compound 2-134] :: 90

1: Cc1c(N2CCc3ncc(-c4cnn(CCN5CCOCC5)c4)cc3C2)nn2c(=O)cc(C(F)F)nc2c1C [Compound 1-173]
2: Cc1cc2nccc(=O)n2nc1N1CCc2ncc(-c3ccccc3C(C)(F)F)cc2C1 [Compound 1-433]
Which entry shows the lesser value of Emax at 30 µM here, 1 or 2 ? // respond with label for picked entry
2
